Biological target: BCL6 (Homo sapiens, UniProt P41182)
Construct: endogenous in cells; host or cells: T47D breast cancer epithelial cells
Assay: Immunofluorescence high content imaging of BCL6 degradation in T47D cells
Type: cell-based
Conditions: T47D breast cancer epithelial cells, 3 days incubation
Quantity name: DC50

Compound	DC50
CNC(=O)COc1cc2cc(Nc3nc(N4CCC(O[C@H]5C[C@H](N6CCN(c7cc8c(cc7C)n(C7CCC(=O)NC7=O)c(=O)n8C)CC6)C5)CC4)ncc3Cl)ccc2n(C(C)C)c1=O (some centres unmarked)	< 0.01 µM

Looking up CNC(=O)COc1cc2cc(Nc3nc(N4CCC(O[C@H]5C[C@H](N6CCN(c7ccc8c(c7Cl)[C@H](C)N([C@@H]7CCC(=O)NC7=O)C8=O)[C@H](C)C6)C5)CC4)ncc3Cl)ccc2n(C(C)C)c1=O (single isomer, unassigned) , I see its DC50 listed as < 0.01 µM

###

Target: BCL6 (Homo sapiens, UniProt P41182)
Construct: endogenous in cells; host or cells: T47D breast cancer epithelial cells
Test: Immunofluorescence high content imaging of BCL6 degradation in T47D cells
Format: cell-based
Settings: T47D breast cancer epithelial cells, 3 days incubation
Quantity name: Dmax

Examples with their reported Dmax follow.
Compound	Experimental result
CNC(=O)COc1cc2cc(Nc3nc(N4CCC(O[C@H]5C[C@H](N6CCN(c7ccc8c(c7Cl)[C@H](C)N([C@@H]7CCC(=O)NC7=O)C8=O)[C@H](C)C6)C5)CC4)ncc3Cl)ccc2n(C(C)C)c1=O (single isomer, unassigned) [Compound 35]	50 to 70%
CNC(=O)COc1cc2cc(Nc3nc(N4CCC(O[C@H]5C[C@H](N6CCN(c7cc(C)c8c(c7)CN(C7CCC(=O)NC7=O)C8=O)CC6)C5)CC4)ncc3Cl)ccc2n(C(C)C)c1=O (stereo partly shown) [Compound 36]	50 to 70%
CNC(=O)COc1cc2cc(Nc3nc(N4CCC(O[C@H]5C[C@H](N6CC[C@@H](c7cc(C)c8c(c7F)CN([C@H]7CCC(=O)NC7=O)C8=O)[C@@H](F)C6)C5)CC4)ncc3Cl)ccc2n(C(C)C)c1=O [Compound 38]	50 to 70%
CNC(=O)COc1cc2cc(Nc3nc(N4CCC(O[C@H]5C[C@H](N6CCN(c7ccc8c(c7F)n(C)c(=O)n8C7CCC(=O)NC7=O)CC6)C5)CC4)ncc3Cl)ccc2n(C(C)C)c1=O (stereo partly shown) [Compound 8]	≥ 70%
CNC(=O)COc1cc2cc(Nc3nc(N4CCC(O[C@H]5C[C@H](N6CCN(c7cc(F)c8c(c7)n(C)c(=O)n8C7CCC(=O)NC7=O)CC6)C5)CC4)ncc3Cl)ccc2n(C(C)C)c1=O (stereo partly shown) [Compound 10]	≥ 70%

Please look at the items below and tell me Dmax for each one, in order.
1. CNC(=O)COc1cc2cc(Nc3nc(N4CCC(O[C@H]5C[C@H](N6CCN(c7cc8c(cn7)n(C7CCC(=O)NC7=O)c(=O)n8C)CC6)C5)CC4)ncc3Cl)ccc2n(C(C)C)c1=O (stereo partly shown) [Compound 14]
2. CNC(=O)COc1cc2cc(Nc3nc(N4CCC(O[C@H]5C[C@H](N6CCN(c7ccc8c(c7Cl)[C@@H](C)N([C@H]7CCC(=O)NC7=O)C8=O)[C@H](C)C6)C5)CC4)ncc3Cl)ccc2n(C(C)C)c1=O (single isomer, unassigned) [Compound 32]

Result:
1: 50 to 70%; 2: ≥ 70%
